Sourced from PubChem BioAssay (NCI)

system: SF-295 CNS; assay: NCI tumour cell line growth inhibition, 48 h
TGI values by entry

Please review the entries below; each comes with its answer.
- Compound: "COc1ccc(-c2cc(-c3nnc(SCC(=O)Nc4ccc(C(C)=O)cc4)o3)c3ccccc3n2)cc1"
  TGI: "> 100 µM"
- Compound: "Cc1cc2c(cc1Br)C1(C)CCC(C)C1(C)O2 (stereo unspecified)"
  TGI: "54.6 µM"
- Compound: "CN(CCN(C)C(=O)CCOS(C)(=O)=O)C(=O)CCOS(C)(=O)=O"
  TGI: "> 100 µM"
- Compound: "Cc1nnc2sc(N/N=C/c3ccccc3)nn12"
  TGI: "> 100 µM"
- Compound: "COc1ccc(-c2ccccc2)cc1-c1c(Nc2cc(Cl)cc(Cl)c2O)c(=O)c1=O"
  TGI: "3.69 µM"

Prompt: Bench note: what TGI did CC1(C)N[P+]2(Nc3ccccc3O2)OC1=O (stereo unspecified) show?
Completion: > 100 µM

Prompt: Next record, please: C=CCN(CC=C)CC(C(C)=O)C(c1ccccc1)c1c(O)c2ccccc2oc1=O (stereo unspecified)
Completion: 95.8 µM

Prompt: Next record, please: COc1cc2c(cc1Cl)n([O-])c(C#N)c(N1CCN(c3ccc([N+](=O)[O-])cc3)CC1)[n+]2=O
Completion: > 100 µM

Prompt: Next record, please: Cn1c(=O)oc2cc(C3CCC(=O)N3Cc3ccc(Cl)cc3)ccc21 (stereo unspecified)
Completion: > 100 µM

Prompt: Next record, please: CNC(=O)OCc1[nH]ccc2c(C)c3nc4ccc(OC)cc4c3cc12
Completion: > 100 µM

Prompt: Next record, please: NC(=O)c1c2c(cc3c(=O)c4ccccc4[nH]c13)CCCC2
Completion: > 100 µM

Prompt: Next record, please: O=C(O)C1SCCS1
Completion: > 100 µM

Prompt: Next record, please: OCC(O)C(O)C(O)C(/C=N\Nc1ncnc2ccc(Br)cc12)=N/Nc1ncnc2ccc(Br)cc12 (stereo unspecified)
Completion: > 100 µM

Prompt: Next record, please: COc1cc(/C=C2\C(=O)Nc3ccccc32)cc(OC)c1OC
Completion: > 100 µM

Prompt: Next record, please: COc1ccc(-n2c(C)nc3c(c(C)nn3-c3ccccc3)c2=O)cc1
Completion: > 100 µM

====

GI50 values by entry
system: DU-145 prostate; assay: NCI tumour cell line growth inhibition, 48 h

- Chemical Smiles: "N=C(N)c1ccc(-c2ccc(-c3ccc(F)cc3)o2)o1"
  GI50: "1800 nM"
- Chemical Smiles: "COc1cc2c(cc1OCCCN1CCN(c3cc(=O)oc4c(C)c(OC)ccc34)CC1)N=C[C@@H]1CCCN1C2=O"
  GI50: "935 nM"

Now for the compound whose GI50 we want.
Prompt: Bench note: what GI50 did Cc1cc2nc3c4cccc(O)c4n(CCN(C)C)c3nc2cc1C show?
Completion: 2960 nM

====

tested on: CAKI-1 renal; assay: NCI tumour cell line growth inhibition, 48 h
Measured Metric: TGI

Please review the entries below; each comes with its answer.
- Compound: "NC(=O)c1c2c(cc3c(=O)c4ccccc4[nH]c13)CCCC2"
  Target Or System: "CAKI-1 renal"
  TGI: "> 100 µM"
- Compound: "COc1ccc2c(c1)[C@@]1(C)CCC3c4ccc(O)cc4CCC3C1C2 (stereo not given in full)"
  Target Or System: "CAKI-1 renal"
  TGI: "32.7 µM"
- Compound: "COc1ccc(/C=N/n2c(Cc3ccc(Cl)cc3)n[nH]c2=O)c(OC)c1"
  Target Or System: "CAKI-1 renal"
  TGI: "> 100 µM"

Prompt: Bench note: what TGI did Cc1c(O)c(=O)ccn1CCO show?
Completion: > 100 µM

Prompt: Next record, please: Cc1ccc(F)cc1NC(=O)c1cc(Cl)ccc1Nc1ccccc1
Completion: > 100 µM

====

system: U251 CNS
Would you mind answering with one of these outcomes? active, inactive

Some solved cases for reference:
- Chemical Smiles: "COc1ccc(C2=C(c3cc(OC)c(OC)c(OC)c3)C(=O)OC2)cc1OC"
  Target Or System: "U251 CNS"
  Assigned Label: "active"
- Chemical Smiles: "Cc1cc(NC(=O)NC(=O)c2ccccc2NC(=O)CN)ccc1Oc1ncc(Br)cn1"
  Target Or System: "U251 CNS"
  Assigned Label: "active"
- Chemical Smiles: "O=[N+]([O-])c1cccc(-c2cc(-c3cc(Br)ccc3O)[nH]n2)c1"
  Target Or System: "U251 CNS"
  Assigned Label: "inactive"
- Chemical Smiles: "COC(=O)[C@@H]1CCCN1C(=O)[C@H]1CCCN1C(=O)[C@@H](Cc1c[nH]c2ccccc12)NC(=S)Nc1cc(C(F)(F)F)cc(C(F)(F)F)c1"
  Target Or System: "U251 CNS"
  Assigned Label: "inactive"
- Chemical Smiles: "COc1cc2c(cc1OC)-c1c(c3ccc([N+](=O)[O-])cc3c(=O)n1CCCN)C2=O"
  Target Or System: "U251 CNS"
  Assigned Label: "active"
- Chemical Smiles: "COc1cc2c3c(n(CCCNCCNCCCN)c(=O)c2cc1OC)-c1cc2c(cc1C3=O)OCO2"
  Target Or System: "U251 CNS"
  Assigned Label: "active"
- Chemical Smiles: "Oc1cc(Cl)ccc1Cc1ccc(Cl)cc1O"
  Target Or System: "U251 CNS"
  Assigned Label: "inactive"
- Chemical Smiles: "CCN1CCC(CC(=O)Nc2n[nH]c3nc(-c4cccs4)c(Br)cc23)CC1"
  Target Or System: "U251 CNS"
  Assigned Label: "inactive"
- Chemical Smiles: "Oc1ccc(CN(Cc2ccc(C(F)(F)F)cc2)Cc2ccc(O)c3ncccc23)c2cccnc12"
  Target Or System: "U251 CNS"
  Assigned Label: "active"

Now, please, on to the next compound.
Prompt: Called result for Cc1cn2c(=O)n(c1=O)Cc1ccccc1C2
Completion: inactive

====

test system: SN12C renal; assay: NCI tumour cell line growth inhibition, 48 h; in the data active = GI50 below about 0.43 µM; inactive = the rest
Would you mind answering with one of these outcomes? Y (active), N (inactive)

Some solved cases for reference:
- Chemical Smiles: "Nc1ccc(-n2c(=O)oc3ccc(Cl)cc3c2=O)c(Cl)c1"
  Assigned Label: "Y"
- Chemical Smiles: "Cc1cc(C)c2c(N)c3cccc(C)c3nc2n1"
  Assigned Label: "N"
- Chemical Smiles: "COc1cc(-c2n/c(=C\\c3c(O)[nH]c4ccccc34)cc3c2=Nc2ccccc2-3)cc(OC)c1OC"
  Assigned Label: "N"

Prompt: Called result for Cc1cc2nc3c4cccc(O)c4n(CCN(C)C)c3nc2cc1C
Completion: N

Prompt: Next record, please: CCOC(=O)C1=C(c2ccccc2)N(c2ccc(OC)cc2)[C@]2(C#N)C(O)=C(Cl)C(Cl)=C(O)[C@]12C#N
Completion: N

====

system: SF-268 CNS; experiment: NCI tumour cell line growth inhibition, 48 h
Measured Metric: TGI

- Molecule: "O=C1C(N=Nc2ccc(-c3nc4ccccc4[nH]3)cc2)NC(=S)N1c1ccccc1 (stereo unspecified)"
  Target Or System: "SF-268 CNS"
  TGI: "> 100 µM"
- Molecule: "Oc1ccc(CN(Cc2ccc(C(F)(F)F)cc2)Cc2ccc(O)c3ncccc23)c2cccnc12"
  Target Or System: "SF-268 CNS"
  TGI: "> 100 µM"
- Molecule: "O=[N+]([O-])c1cccc(-c2cc(-c3cc(Br)ccc3O)[nH]n2)c1"
  Target Or System: "SF-268 CNS"
  TGI: "12.7 µM"
- Molecule: "Cc1ccc2nc(N/N=C/c3cccc(C)n3)cc(C)c2c1"
  Target Or System: "SF-268 CNS"
  TGI: "38.7 µM"
- Molecule: "COc1cc(OC)cc(-c2cncn2-c2ccc(-c3nc4cc(OC)cc(OC)c4s3)cc2)c1"
  Target Or System: "SF-268 CNS"
  TGI: "> 100 µM"

Prompt: Bench note: what TGI did COc1cc2c(cc1OCCCN1CCN(c3cc(=O)oc4c(C)c(OC)ccc34)CC1)N=C[C@@H]1CCCN1C2=O show?
Completion: > 20.9 µM

Prompt: Next record, please: Cc1cc(C)c2c(N)c3cccc(C)c3nc2n1
Completion: 6.3 µM

Prompt: Next record, please: Cn1ccc(C(=O)NCCCCCNC(=O)c2ccn(C)c(=O)c2O)c(O)c1=O
Completion: > 100 µM

Prompt: Next record, please: O=C(O)c1ccc(Nc2nc3ccccc3nc2C(=O)O)cc1
Completion: > 100 µM

Prompt: Next record, please: CNC(=O)OCc1[nH]ccc2c(C)c3nc4ccc(OC)cc4c3cc12
Completion: > 100 µM

Prompt: Next record, please: Nc1nc(SCCC/C=C/I)nc2c1ncn2C1OC(CO)C(O)C1O (stereo unspecified)
Completion: > 202 µM

Prompt: Next record, please: COc1ccccc1NC(=O)CC(=O)NNCC(=O)Nc1nnc(-c2ccccc2)o1
Completion: > 100 µM

Prompt: Next record, please: O=C(NC1(C(=O)O)CC1c1ccccc1)c1ccccc1 (stereo unspecified)
Completion: > 100 µM
